test-description: Displacement of [3H]-CCR2-RA-[R] from human CCR2 C75S mutant expressed in CHO cell membranes incubated for 2 hrs by scintillation counting method
Set-up: species or system Cell membrane
observation-type: IC50 (nM)
Numbers only, in nM.

Query: For the molecule `N#CSCCNC(=O)c1ccc(Oc2ccc(Cl)cc2NS(=O)(=O)c2ccc(Cl)c(C(F)(F)F)c2)cc1` , give its reported IC50.
Response: 5

* * *

Please provide measured Stabilty for the entries that follow.
test-description: Stability in pH 7.4 Tris-HCl containing 5 mM MgCl2 and 0.1% CHAPS assessed as intact compound level measured at room temperature
Format: physicochemical
condition-description: buffer, pH 7.4, 5000 µM

N#CSCCNC(=O)c1ccc(Oc2ccc(Cl)cc2NS(=O)(=O)c2ccc(Cl)c(C(F)(F)F)c2)cc1 = > 6 h

Consider the record given below.
Query: For the compound `O=C(O)c1ccc(Oc2ccc(Cl)cc2NS(=O)(=O)c2ccc(Cl)c(Cl)c2)cc1` , give its reported Stabilty.
Response: > 6 h

* * *

subject-of-test: C-C chemokine receptor type 2 (Homo sapiens, UniProt P41597)
Sequence (P41597 whole entry): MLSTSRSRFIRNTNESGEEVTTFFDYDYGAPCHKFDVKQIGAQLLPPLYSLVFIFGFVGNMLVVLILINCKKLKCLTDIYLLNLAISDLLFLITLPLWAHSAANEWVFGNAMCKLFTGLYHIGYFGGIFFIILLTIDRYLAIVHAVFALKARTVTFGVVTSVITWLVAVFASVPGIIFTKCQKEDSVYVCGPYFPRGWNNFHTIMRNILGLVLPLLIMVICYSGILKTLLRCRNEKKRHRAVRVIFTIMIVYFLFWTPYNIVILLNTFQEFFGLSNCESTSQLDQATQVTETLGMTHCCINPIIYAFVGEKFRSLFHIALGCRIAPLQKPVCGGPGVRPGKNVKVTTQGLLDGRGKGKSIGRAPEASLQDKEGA
test-description: Displacement of [3H]-CCR2-RA-[R] from wild type human CCR2 expressed in CHO cell membranes incubated for 2 hrs by scintillation counting method
Parameters: species or system Cell membrane
condition-description: read-out: IC50
observation-type: IC50 (nM)
Numbers only, in nM.

Query: For the molecule `N#CSCCNC(=O)c1ccc(Oc2ccc(Cl)cc2NS(=O)(=O)c2ccc(Cl)c(C(F)(F)F)c2)cc1` , give its reported IC50.
Response: 2

* * *

subject-of-test: C-C chemokine receptor type 1 (Homo sapiens)
Sequence (P32246 whole entry): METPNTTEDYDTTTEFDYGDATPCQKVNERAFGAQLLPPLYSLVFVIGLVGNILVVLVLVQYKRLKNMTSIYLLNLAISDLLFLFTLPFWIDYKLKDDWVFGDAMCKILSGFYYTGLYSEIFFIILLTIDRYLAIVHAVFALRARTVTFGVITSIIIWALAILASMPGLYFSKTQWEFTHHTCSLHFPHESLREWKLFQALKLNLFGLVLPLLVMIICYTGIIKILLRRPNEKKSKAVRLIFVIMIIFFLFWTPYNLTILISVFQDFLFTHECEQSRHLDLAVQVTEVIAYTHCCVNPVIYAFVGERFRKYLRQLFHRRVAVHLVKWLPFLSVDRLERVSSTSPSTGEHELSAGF
test-description: Antagonist activity at human CCR1 expressed in human U2OS cell membranes as inhibition of [35S]GTPgammaS binding pre-incubated for 30 mins before CCL3 stimulation and followed by further incubation for 90 mins by scintillation counting method
observation-type: IC50 (µM)
Answers are plain numbers, in µM.

Query: For the molecule `N#CSCCNC(=O)c1ccc(Oc2ccc(Cl)cc2NS(=O)(=O)c2ccc(Cl)c(C(F)(F)F)c2)cc1` , give its reported IC50.
Response: 5.01

* * *

subject-of-test: UniProt P41597
test-description: Displacement of [3H]-CCR2-RA-(R) from human CCR2b expressed in human U2OS cell membranes pre-incubated for 4 hrs before radio ligand addition and measured after 20 mins by scintillation counting method
Set-up: species or system Cell membrane
condition-description: read-out: Ki
observation-type: pKi
Give bare numbers, as −log10 of the molar value.

Query: Enter recorded pKi with UniProt P41597 for `N#CSCCNC(=O)c1ccc(Oc2ccc(Cl)cc2NS(=O)(=O)c2ccc(Cl)c(C(F)(F)F)c2)cc1` here.
Response: 9.15

* * *

test-description: Displacement of [3H]-CCR2-RA-[R] from human CCR2 C70S/C75S/C232S mutant expressed in CHO cell membranes incubated for 2 hrs by scintillation counting method
Design: species or system Cell membrane
observation-type: IC50 (nM)
Answers are plain numbers, in nM.

Query: For the molecule `N#CSCCNC(=O)c1ccc(Oc2ccc(Cl)cc2NS(=O)(=O)c2ccc(Cl)c(C(F)(F)F)c2)cc1` , give its reported IC50.
Response: 16

Attribution: ChEMBL document CHEMBL4732216
